# EXPERIMENTAL TARGET: CV S-protein construct 6 trimer TP31001F (SARS-CoV-2, UniProt P0DTC2 14-1208)
# TEST DETAILS: SPR
TEST READOUT: Kd

Observe how each entry below is paired with its result.
variant 6-10 (Fc fusion) VHH: EVQLVESGGGLVQPGGSLRLSCAASGSIASIHAMGWFRQAPGKEREFVAAISRSGGFGSYADSVKGRFTISADNSKNTAYLQMNSLKPEDTAVYYCARDDKYYDSSGYPAYFQHWGQGTLVTVSS    0.6 nM
variant 6-18 (Fc fusion) VHH: EVQLVESGGGLVQPGGSLRLSCAASGLTFRNYAMGWFRQAPGKEREFIAGMMWSGGTTTYADSVKGRFTISADNSKNTAYLQMNSLKPEDTAVYYCAREGYYYDSSGYLNYFDYWGQGTLVTVSS    5.3 nM

Read the next record carefully.
Task: Supply Kd value. Item: variant 6-55 (Fc fusion) VHH: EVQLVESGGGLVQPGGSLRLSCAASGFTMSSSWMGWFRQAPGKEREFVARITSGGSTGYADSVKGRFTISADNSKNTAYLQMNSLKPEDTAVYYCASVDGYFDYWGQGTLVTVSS
Output: 0.3 nM
